# assay: Solubility assessment of amorphous RAD1901-2HCl in water/organic solvent system
# Type: physicochemical
# assay_setup: MeOH/H2O (90:10), organic solvent or mixture, thermodynamic from solid, MeOH/H2O (90:10); sample ID C5; read-out: Solubility assessment 10 vol.
quantity: solubility

| compound | reported_measurement |
| --- | --- |
| CCNCCc1ccc(CN(CC)c2cc(OC)ccc2[C@@H]2CCc3cc(O)ccc3C2)cc1.Cl.Cl [amorphous RAD1901-2HCl] | > 100 mg/mL |

----------
# assay: Solubility assessment of Sample 1 (majorly Form 1) in 24 solvent systems
# Assay type: physicochemical
# assay_setup: propyl acetate, 50 °C, organic solvent or mixture, thermodynamic from solid, Propyl acetate; sample ID A2; read-out: Solubility assessment 20 vol.

| molecule | solubility |
| --- | --- |
| CCNCCc1ccc(CN(CC)c2cc(OC)ccc2[C@@H]2CCc3cc(O)ccc3C2)cc1.Cl.Cl [Sample 1] | < 50 mg/mL |
